IC50 for Metabotropic glutamate receptor 5 (Rattus norvegicus) - collated from the literature.
Labelling: IC50 reported below 900 nM becomes Yes; at or above becomes No.

Past entries and their recorded results:
SMILES_STRING	GROUP_LABEL
COc1cccc(-c2cccc(C#Cc3cccc(C)n3)c2)c1	Yes
Cc1cccc(C#Cc2cccc(OCCCCc3ccccc3)c2)n1	No
Cc1ccc(N)c(C#Cc2cc(F)cc(F)c2)n1	Yes
Cc1ccc(N)c(C#Cc2cccc(F)c2)n1	Yes
CC1(C)CC(=O)c2cc(Br)c(NC3CCCC3)nc2C1	No

[ask] Dear colleague, could you confirm whether IC50 of C(#Cc1ccc2c(n1)CCCC2)c1ccccc1 falls below 900 nM? Thanks.
[reply] Yes

[ask] Dear colleague, could you confirm whether IC50 of CC1(C)CC(=O)c2ccc(C#Cc3ccccn3)nc2C1 falls below 900 nM? Thanks.
[reply] No

[ask] Dear colleague, could you confirm whether IC50 of Cc1ccc(C(=O)N(C)c2nc(-c3cc(NC(C)C)ncn3)cs2)cc1 falls below 900 nM? Thanks.
[reply] No
